Assayed target: RAS guanyl-releasing protein 1 (Homo sapiens, UniProt O95267)
Sequence (O95267 whole entry): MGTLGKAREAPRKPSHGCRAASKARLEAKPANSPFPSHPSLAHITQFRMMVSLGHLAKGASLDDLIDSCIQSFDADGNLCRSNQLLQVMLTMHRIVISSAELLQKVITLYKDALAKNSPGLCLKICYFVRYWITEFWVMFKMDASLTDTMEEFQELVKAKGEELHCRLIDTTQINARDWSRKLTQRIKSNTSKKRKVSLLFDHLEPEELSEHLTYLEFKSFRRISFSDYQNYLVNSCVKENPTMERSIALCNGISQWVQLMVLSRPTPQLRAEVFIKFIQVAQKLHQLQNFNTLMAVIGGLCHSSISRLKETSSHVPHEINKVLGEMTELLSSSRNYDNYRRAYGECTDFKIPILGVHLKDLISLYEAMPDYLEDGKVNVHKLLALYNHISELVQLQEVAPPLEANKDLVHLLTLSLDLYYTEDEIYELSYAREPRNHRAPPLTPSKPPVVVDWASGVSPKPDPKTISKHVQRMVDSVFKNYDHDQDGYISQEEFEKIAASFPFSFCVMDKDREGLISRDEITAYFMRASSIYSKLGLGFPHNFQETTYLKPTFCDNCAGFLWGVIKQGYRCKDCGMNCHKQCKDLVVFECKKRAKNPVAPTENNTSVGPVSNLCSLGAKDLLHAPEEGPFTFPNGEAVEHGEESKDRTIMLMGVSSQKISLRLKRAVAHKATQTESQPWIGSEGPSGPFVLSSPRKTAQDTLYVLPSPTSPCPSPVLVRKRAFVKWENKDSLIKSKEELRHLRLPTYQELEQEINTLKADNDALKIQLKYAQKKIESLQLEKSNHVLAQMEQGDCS
Procedure text: Activation of GFP-tagged RasGRP1 (unknown origin) expressed in human LNCAP cells assessed as ERK1/2 phosphorylation after 30 mins by immunoblot method
Format: cell-based
Test readout: pEC50
pEC50 field: float, defined as -log10 of concentration (mol/L).

## Input Retrieve pEC50 measured for Cn1cc(/C=C2\CC(CO)(COC(=O)C(C)(C)C)OC2=O)c2ccccc21 (stereo unspecified) and print it.
## Output 5.43

Data credit: ChEMBL document CHEMBL4130626
